system: K562; assay: NCI tumour cell line growth inhibition, 48 h
The source made the active and inactive calls. No stated cut-off is given here; in the data, active = GI50 up to about 1.1 µM and inactive = higher.
Please answer using one outcome listed in 1 for active, 0 for inactive

INSERT INTO assay_data (compound, class) VALUES
  ('COC(=O)C1=C(C)N2CCCOC2(C)C(C(=O)OC)C1c1cccc(Cl)c1 (stereo not given)', 0),
  ('OCCN(CCO)c1ncnc2[nH]cnc12', 0),
  ('CCOP(=O)(OCC)C1(O)CC(n2cc(C)c(=O)[nH]c2=O)OC1CO (stereo not given)', 0),
  ('COc1ccccc1/N=N/c1c(-c2ccccc2)nn(C(=O)CC(=O)Nc2ccccc2Cl)c1-c1ccccc1', 0),
  ('CN(Cc1cnc2nc(N)nc(N)c2n1)c1ccc(C(=O)NC(CCC(=O)O)C(=O)O)cc1 (stereo not given)', 1),
  ('NC(Cc1ccc(O)c(O)c1)P(=O)(O)O (stereo not given)', 0),
  ('COc1ccc(C2=NN(C(=O)c3cccnc3)C(O)(c3cc(F)c(Cl)cc3Cl)C2)cc1OC (stereo not given)', 0),
  ('COc1ccc(C23OCC(Cc4cc(OC)c(OC)cc42)C3COC(C)=O)cc1OC (stereo not given)', 0),
  ('CCCCc1ccc(Nc2nc(Cl)c3[nH]cnc3n2)cc1', 0);

Note: attention shifts to another entry.
Data request: // outcome(item) with item = CC(=O)O[C@]1(C(C)=O)CC[C@H]2[C@@H]3C[C@H](C)C4=CC(=O)C=C[C@]4(C)[C@@]3(F)[C@@H](O)C[C@@]21C [FLUOROMETHOLONE ACETATE]
Data returned: 0

* * *

tested on: 786-0; experiment: NCI tumour cell line growth inhibition, 48 h
Calls of active or inactive are those of the source. Rule as the data show it: active = GI50 up to about 1.1 µM and inactive = higher.
parameter-measured: GI50

Please review the following examples before continuing.
INSERT INTO assay_data (compound, subject_of_test, parameter_measured, experimental_result) VALUES
  ('Cc1c(C(=O)/C=C/c2ccco2)[n+]([O-])c2ccccc2[n+]1[O-]', '786-0', 'GI50', '> 100 µM (inactive)'),
  ('CC(C)C(Br)C(=O)NCC(=O)O (stereo unspecified)', '786-0', 'GI50', '> 100 µM (inactive)'),
  ('CC1(C)C(C(=O)OC(C#N)c2cccc(OCC(=O)OCc3ccccc3)c2)C1(C)C (stereo unspecified)', '786-0', 'GI50', '> 100 µM (inactive)'),
  ('Cc1cn2c(=O)c3ccccc3nc2s1', '786-0', 'GI50', '> 100 µM (inactive)');

Data request: So what's the measured GI50 for this one? `c1ccc2c(CSCc3cccc4ccccc34)cccc2c1`
Data returned: > 100 µM (inactive)

* * *

system: MOLT-4; test: NCI tumour cell line growth inhibition, 48 h
Activity calls are given as the source filed them. No stated cut-off is given here; in the data, active = GI50 up to about 1.1 µM and inactive = higher.
Pick one: yes for active, no for inactive

INSERT INTO assay_data (compound, class) VALUES
  ('C/C(=C\CNc1ncnc2[nH]c(Cl)nc12)CO', 'no'),
  ('CC(C)(/C=N\O)NO', 'no'),
  ('CC1=NN(c2ccccc2)C(=O)C1=C1SCCS1', 'no'),
  ('COc1ccc(CCn2cnc3ccccc32)cc1', 'no'),
  ('O=C(O)Cn1ccnc1[N+](=O)[O-]', 'no');

Data request: Check the results log: what was the call for `Cc1ccc(S(=O)(=O)NNC(=O)Nc2cccc(C(F)(F)F)c2)cc1` ?
Data returned: no

Data request: Just curious, what result did `CN(NC(=O)c1ccco1)C1=NCCN1` get here?
Data returned: no

Data request: Could you check what this test reported for CC1(C)OCC(C2OC3OC(C)(C)OC3C2c2ccccc2)O1 (stereo unspecified) ?
Data returned: no

Data request: Dear all, I need the recorded test outcome for CN(Cc1cnc2nc(N)nc(N)c2n1)c1ccc(C(=O)NC(CCC(=O)O)C(=O)O)cc1 (stereo unspecified) , thank you.
Data returned: yes

Data request: How was COc1cc(C)c2c(c1C=O)Oc1c(c(C)c(O)c3c1C(O)OC3=O)OC2=O (stereo unspecified) classified in this test?
Data returned: no

Data request: Which outcome was assigned to `O=C(Sc1c(-c2ccccc2)c(=O)n(-c2ccccc2)c(=S)n1-c1ccccc1)c1ccco1` in this test?
Data returned: no

* * *

system: SK-MEL-2; experiment: NCI tumour cell line growth inhibition, 48 h
Activity calls are given as the source filed them. Cut-off read from the data, not from the text of the source: active = GI50 up to about 1.1 µM and inactive = higher.
The following compounds are shown together with reported GI50 values.

Reference set (8 entries):
INSERT INTO results (compound, parameter_measured, experimental_result) VALUES
  ('CCOC1=C/C(=N\Nc2ccc([N+](=O)[O-])cc2)CCC1', 'GI50', '21.5 µM (inactive)'),
  ('COc1ccc(NC(=O)C(=O)C(CC2C(=O)NC(=S)NC2=O)C(=O)c2ccc3ccccc3c2)c([N+](=O)[O-])c1 (centres undefined)', 'GI50', '> 100 µM (inactive)'),
  ('O=C(Sc1c(-c2ccccc2)c(=O)n(-c2ccccc2)c(=S)n1-c1ccccc1)c1ccco1', 'GI50', '> 100 µM (inactive)'),
  ('O=C(Nc1nc2ncn(CCOC(=O)c3ccccc3)c2c(=S)[nH]1)c1ccccc1', 'GI50', '41.6 µM (inactive)'),
  ('C=CCCC(=O)CC(=O)OCc1ccccc1', 'GI50', '> 100 µM (inactive)'),
  ('COCCOCCOCCOc1ccc(C(C#N)N(CCc2ccccc2)C(=O)c2cc(C(=O)N(CCc3ccccc3)C(C#N)c3ccc(OCCOCCOCCOC)cc3)cc(C(=O)N(CCc3ccccc3)C(C#N)c3ccc(OCCOCCOCCOC)cc3)c2)cc1 (centres undefined)', 'GI50', '> 100 µM (inactive)'),
  ('Cc1cnc2nc(-c3ccc(Cl)cc3)cc(O)c2c1', 'GI50', '5.82 µM (inactive)'),
  ('CCCCc1ccc(Nc2nc(Cl)c3[nH]cnc3n2)cc1', 'GI50', '14.6 µM (inactive)');

Note: attention shifts to another entry.
Data request: Bench note: what GI50 did O=C(O)CNC(=O)c1ccc2cc(C(=O)N3CC(CCl)c4ccc([N+](=O)[O-])cc43)[nH]c2c1 (centres undefined) show?
Data returned: > 100 µM (inactive)

* * *

// GI50 lookup, one value per entry
test system: SK-OV-3; experiment: NCI tumour cell line growth inhibition, 48 h
Active and inactive are the calls of the source. Cut-off read from the data, not from the text of the source: active = GI50 up to about 1.1 µM and inactive = higher.

Worked examples, 4 molecules total:
INSERT INTO assay_data (molecule, subject_of_test, parameter_measured, experimental_result) VALUES
  ('Cc1ccc(/N=N/c2c(C)nn(-c3ccccc3)c2C)c(Br)c1', 'SK-OV-3', 'GI50', '> 100 µM (inactive)'),
  ('COc1ccc2[nH]cc(/C=C(/C)c3ccncc3)c2c1', 'SK-OV-3', 'GI50', '4.41 µM (inactive)'),
  ('Cc1ccc(C)c2c1n1c(=O)n(C)c(=O)n21', 'SK-OV-3', 'GI50', '> 100 µM (inactive)'),
  ('CCOC(CNCCC(=O)OC)OCC', 'SK-OV-3', 'GI50', '> 10 µM (inactive)');

Data request: I would be grateful if you could share the reported GI50 for `O=S1(=O)NN=C(NCc2ccc(F)cc2)c2ccccc21` .
Data returned: 50.6 µM (inactive)

Data request: Tell me the measured GI50 of CCOC(=O)C1(Cc2ccc3ccccc3c2)CCCCCN1 (stereo not drawn) , please.
Data returned: 32.7 µM (inactive)

Data request: Value lookup for GI50; key = `C/C(=C\CNc1ncnc2[nH]c(Cl)nc12)CO`
Data returned: > 100 µM (inactive)

* * *

Below, each entry is listed with its recorded GI50.
tested on: TK-10; assay: NCI tumour cell line growth inhibition, 48 h
Active and inactive are the calls of the source. No stated cut-off is given here; in the data, active = GI50 up to about 1.1 µM and inactive = higher.

Guide cases for GI50, answers given:
INSERT INTO results (compound, experimental_result) VALUES
  ('Cc1cc(=O)n2nc(CN3CCCCC3)sc2n1', '> 100 µM (inactive)'),
  ('COC(=O)C(=O)C(C(C)=O)C(=O)NCc1ccccc1 (stereo not given)', '> 100 µM (inactive)');

Data request: Param item = `Oc1cc(O)c2c(-c3c(O)c(-c4ccc(O)c(O)c4)[o+]c4cc(O)cc(O)c34)c(O)c(-c3ccc(O)c(O)c3)[o+]c2c1` ; retrieve measured GI50.
Data returned: 61.5 µM (inactive)

Data request: Endpoint output: GI50 of CCOC(=O)C(CC(C)C)NC(=O)C(Cc1ccc(N(CCCl)CCCl)cc1)NC(C)=O (stereo not given) . Value?
Data returned: 15.2 µM (inactive)

Data request: Entry `COc1ccc(C(=O)Cc2c(C(=O)c3ccccc3)c3ccccc3n2C(=O)c2ccccc2)cc1` : reported GI50 = ?
Data returned: > 100 µM (inactive)

* * *

Quick reference: GI50 of the listed items.
tested on: UACC-62; test: NCI tumour cell line growth inhibition, 48 h
Active and inactive are the calls of the source. Cut-off read from the data, not from the text of the source: active = GI50 up to about 1.1 µM and inactive = higher.

Here's what some known entries look like.
INSERT INTO results (compound, parameter_measured, experimental_result) VALUES
  ('CC(=O)OC12/C(=N/O)CCCCCC1c1ccccc12 (stereo unspecified)', 'GI50', '95.5 µM (inactive)'),
  ('CCOP(=O)(OCC)C(C(=O)OC)C(=O)C(=O)Nc1c(C)cc(Br)cc1C (stereo unspecified)', 'GI50', '> 100 µM (inactive)'),
  ('CN(c1ccccc1)c1c(Cl)c(=O)oc2c1ccc1occc12', 'GI50', '40.6 µM (inactive)'),
  ('CO/C=C(/C(=O)OC)[C@@H]1C[C@@H]1c1ccc2ccccc2c1', 'GI50', '32.5 µM (inactive)'),
  ('c1csc(-c2cc(-c3ccsc3)c(-c3ccsc3)s2)c1', 'GI50', '> 100 µM (inactive)');

Switching to the query record.
Data request: Fill in the blank: the reported GI50 of `CCOC1=C/C(=N\Nc2ccc([N+](=O)[O-])cc2)CCC1` is ____.
Data returned: 22.5 µM (inactive)

This collection of values is drawn from ChEMBL document CHEMBL1201862.
